biological target: T1, human MSLN-R3-3 polypeptide (human); test: ELISA, coated antigen, antibody 0.001 nM
T1 construct: Part of region R3 of human MSLN; also called hMSLN-R3-3; human MSLN-R3-3 protein
readout: OD450
Could you keep your reply to the number by itself?

1. S009-F4-127.10 chimeric antibody (antibody, human IgG1, kappa, V domains shown, Human-murine chimeric antibody, human IgG1/kappa constant regions) VH: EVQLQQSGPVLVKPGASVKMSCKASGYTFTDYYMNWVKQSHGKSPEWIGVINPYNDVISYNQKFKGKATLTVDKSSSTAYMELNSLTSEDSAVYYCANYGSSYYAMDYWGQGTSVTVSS VL: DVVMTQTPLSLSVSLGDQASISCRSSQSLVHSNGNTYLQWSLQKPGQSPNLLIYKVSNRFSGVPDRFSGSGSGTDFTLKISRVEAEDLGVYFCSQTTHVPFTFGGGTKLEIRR; 0.05
2. S009-F4-94.15 chimeric antibody (antibody, human IgG1, kappa, V domains shown, Human-murine chimeric antibody: murine VH/VL on human IgG1 heavy and kappa light constant regions) VH: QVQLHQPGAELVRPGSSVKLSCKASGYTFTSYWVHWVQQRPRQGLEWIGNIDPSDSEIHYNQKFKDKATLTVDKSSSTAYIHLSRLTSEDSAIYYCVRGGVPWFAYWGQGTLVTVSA VL: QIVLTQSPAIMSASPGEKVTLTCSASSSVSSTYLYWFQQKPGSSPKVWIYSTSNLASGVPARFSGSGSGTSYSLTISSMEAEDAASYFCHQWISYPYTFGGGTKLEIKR; 0.05
3. S009-F5-9.16 chimeric antibody (antibody, human IgG1, kappa, V domains shown, Human-murine chimeric antibody, human IgG1/kappa constant regions) VH: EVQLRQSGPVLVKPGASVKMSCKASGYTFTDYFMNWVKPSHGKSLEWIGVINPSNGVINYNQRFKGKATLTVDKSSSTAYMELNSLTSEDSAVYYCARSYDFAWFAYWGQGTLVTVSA VL: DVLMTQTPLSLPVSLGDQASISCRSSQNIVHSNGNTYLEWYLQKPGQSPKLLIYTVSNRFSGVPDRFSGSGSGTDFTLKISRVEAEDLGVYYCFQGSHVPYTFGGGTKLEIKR; 0.04

Now for another entry.
Look up and report measured OD450 for this entry: S009-F6-76.1 chimeric antibody (antibody, human IgG1, kappa, V domains shown, Human-murine chimeric antibody, human IgG1/kappa constant regions) VH: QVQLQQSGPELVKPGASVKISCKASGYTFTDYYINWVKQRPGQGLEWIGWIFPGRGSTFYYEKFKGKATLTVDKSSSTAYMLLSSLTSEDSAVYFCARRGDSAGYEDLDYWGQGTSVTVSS VL: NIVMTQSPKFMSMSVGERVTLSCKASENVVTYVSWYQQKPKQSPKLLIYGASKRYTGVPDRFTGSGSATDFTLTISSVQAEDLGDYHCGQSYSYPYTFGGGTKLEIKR
0.04
